System: Rhizoctonia solani (RHIZSO)
Test description: microbe, parasite or virus in culture
Assay type: cell-based
Experimental setup: Rhizoctonia solani, read-out: RHIZSO in vitro Growth Inhibition
Outcome measure: inhibition at 25 ppm

- Compound: "COc1ccnc(C(=O)NCCCCC(=O)Oc2cccc(NC(C)=O)c2)c1O [Compound 367]"
  Experimental system: "Rhizoctonia solani (RHIZSO)"
  Result: "< 80%"
- Compound: "Cc1ccnc(C(=O)N[C@H]2COC(=O)[C@H](Cc3ccccc3)[C@@H](OC(=O)C(C)C)[C@H](C)OC2=O)c1OC(=O)C(C)C [Compound 572]"
  Experimental system: "Rhizoctonia solani (RHIZSO)"
  Result: "< 80%"
- Compound: "COc1ccnc(C(=O)NC(C)C(=O)OCCCCCc2ccccc2)c1O (stereo not shown) [Compound 370]"
  Experimental system: "Rhizoctonia solani (RHIZSO)"
  Result: "< 80%"
- Compound: "O=C(NCc1ccccn1)c1nc(Br)ccc1O [Compound 483]"
  Experimental system: "Rhizoctonia solani (RHIZSO)"
  Result: "< 80%"
- Compound: "COCCC(=O)Oc1c(OC)ccnc1C(=O)N[C@H]1COC(=O)[C@H](Cc2ccccc2)[C@@H](OC(=O)C(C)C)[C@H](C)OC1=O [Compound 658]"
  Experimental system: "Rhizoctonia solani (RHIZSO)"
  Result: "< 80%"
- Compound: "COc1ccnc(C(=O)N[C@H]2CC3OC2[C@H](C)[C@@H](OCc2ccccc2)[C@H]3C)c1O (stereo partly shown) [Compound 321]"
  Experimental system: "Rhizoctonia solani (RHIZSO)"
  Result: "< 80%"
- Compound: "COc1ccc(CNC(=O)c2ncccc2O)cc1 [Compound 226]"
  Experimental system: "Rhizoctonia solani (RHIZSO)"
  Result: "< 80%"
- Compound: "COc1ccnc(C(=O)N[C@H]2COC(=O)[C@H](Cc3ccccc3)[C@@H](O)[C@H](C)OC2=O)c1O [Compound 383]"
  Experimental system: "Rhizoctonia solani (RHIZSO)"
  Result: "< 80%"
- Compound: "COc1ccnc(C(=O)N[C@H]2COC(=O)[C@H](Cc3ccccc3)[C@@H](OC(=O)C(C)C)[C@H](C)OC2=O)c1OC(=O)c1ccc(F)c(F)c1 [Compound 639]"
  Experimental system: "Rhizoctonia solani (RHIZSO)"
  Result: "< 80%"
- Compound: "COc1ccnc(C(=O)N[C@H]2CC[C@H](Oc3ccc(C(F)(F)F)cc3)CC2)c1O [Compound 270]"
  Experimental system: "Rhizoctonia solani (RHIZSO)"
  Result: "> 80%"
- Compound: "CC1(C)CC(NC(=O)c2cn(-c3ccccc3)nc2O)CC(C)(C)C1 [Compound 559]"
  Experimental system: "Rhizoctonia solani (RHIZSO)"
  Result: "< 80%"
- Compound: "COc1ccnc(C(=O)Nc2ccc(Oc3ccc(C(F)(F)F)cn3)cc2)c1O [Compound 462]"
  Experimental system: "Rhizoctonia solani (RHIZSO)"
  Result: "< 80%"
- Compound: "COc1ccnc(C(=O)NC2CCc3ccccc3C2=O)c1O (stereo not shown) [Compound 285]"
  Experimental system: "Rhizoctonia solani (RHIZSO)"
  Result: "> 80%"
- Compound: "COc1ccnc(C(=O)N[C@@H]2CC3CC2C[C@@H]3COCc2cccc(C(F)(F)F)c2)c1O (stereo partly shown) [Compound 297]"
  Experimental system: "Rhizoctonia solani (RHIZSO)"
  Result: "> 80%"
- Compound: "COc1ccnc(C(=O)N[C@H]2COC(=O)[C@H](Cc3ccccc3)[C@@H](OC(=O)C(C)C)[C@H](C)OC2=O)c1OC(=O)Cc1ccccc1 [Compound 648]"
  Experimental system: "Rhizoctonia solani (RHIZSO)"
  Result: "< 80%"
- Compound: "COc1ccnc(C(=O)Nc2ccc(Oc3ccccc3Cl)cc2)c1O [Compound 441]"
  Experimental system: "Rhizoctonia solani (RHIZSO)"
  Result: "< 80%"
